- TARGET_ENTITY: T1, cynomolgus monkey TREM2 Fc fusion (entire TREM2 ECD; only one Fc arm fused to TREM2) (cynomolgus monkey, UniProt Q9NZC2 19-174 (human entry))
- T1 construct: also called cyno TREM2-Fc
- T1 chain: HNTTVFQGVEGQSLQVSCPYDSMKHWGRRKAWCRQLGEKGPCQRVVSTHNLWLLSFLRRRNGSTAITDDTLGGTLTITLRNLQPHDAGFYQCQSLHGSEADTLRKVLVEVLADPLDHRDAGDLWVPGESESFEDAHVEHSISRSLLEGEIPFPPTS
- ASSAY_PROCEDURE: BLI, Fab, monovalent
MEASURED_PARAMETER: pKd
Please note pKd is a logarithmic value: minus log10 of concentration in mol/L. Answer with that number alone.

Check out these entries, answers already filled in.
BINDER	pKd
AL2p-2 (antibody, V domains shown, AL2p-h50 variant; Fab and IgG formats under one id) VH: QVQLVQSGAEVKKPGSSVKVSCKASGYAFSSSWMNWVRQAPGQGLEWMGRIYPGGGDTNYAQKFQGRVTITADESTSTAYMELSSLRSEDTAVYYCARLLRNQPGESYAMDYWGQGTLVTVSS VL: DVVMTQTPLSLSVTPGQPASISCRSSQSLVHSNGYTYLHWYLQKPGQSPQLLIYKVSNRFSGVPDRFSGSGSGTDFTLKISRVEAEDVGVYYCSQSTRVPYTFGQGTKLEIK	5.85
AL2p-16 (antibody, V domains shown, Fab and IgG formats under one id) VH: QVQLVQSGAEVKKPGSSVKVSCKASGYAFSSHWMNWVRQAPGQGLEWMGRIYPGDGDTNYAQKFRGRVTITADESTSTAYMELSSLRSEDTAVYYCARLLRNQPGASYAMDYWGQGTLVTVSS VL: GVVMTQTPLSLSVTPGQPASISCRTSQSLVHSNGYTYLHWYLQKPGQSPQLLIYKVSNRVSGVPDRFSGSGSGTDFTLKISRVEAEDVGVYYCSQSTRVPYTFGQGTKLEIK	8.87
AL2p-62 (antibody, V domains shown, Fab and IgG formats under one id) VH: QVQLVQSGAEVKKPGASVKVSCKASGYAFSSQWMNWVRQAPGQRLEWIGRIYPGEGDTNYAGKFQGRVTITADTSASTAYMELSSLRSEDTAVYYCARLLRNQPGESYAMDYWGQGTLVTVSS VL: DVVMTQSPDSLAVSLGERATINCRSSQSLVHSNQYTYLHWYQQKPGQSPKLLIYKVSNRFSGVPDRFSGSGSGTDFTLTISSLQAEDVAVYYCSQSTRVPYTFGGGTKVEIK	7.71

Okay, now this binder:
# binder AL2p-6 (antibody, V domains shown, AL2p-h50 variant; Fab and IgG formats under one id) VH: QVQLVQSGAEVKKPGSSVKVSCKASGYAFSSSWMNWVRQAPGQGLEWMGRIYPGDGDTNYAQKFQGRVTITADESTSTAYMELSSLRSEDTAVYYCARLLRNQPGESYAMDYWGQGTLVTVSS VL: DVVMTQTPLSLSVTPGQPASISCRSSQSLVHSNWYTYLHWYLQKPGQSPQLLIYKVSNRFSGVPDRFSGSGSGTDFTLKISRVEAEDVGVYYCSQSTRVPYTFGQGTKLEIK ; its pKd = 5.94
